# Test system: SK-MEL-5
# ASSAY_NAME: Anticancer activity against human SK-MEL-5 cells after 48 hrs by sulforhodamine B assay
# Assay type: functional, cell-based
# TEST_CONDITIONS: SK-MEL-5, 48 h
With a cut-off of 2000 nM, any IC50 strictly below it is called 1 (yes); any IC50 meeting it or above is called 0 (no).

Known results for compounds:
# INPUT_SMILES, CATEGORY_LABEL
data = [
    ("Nc1cccc2c(-c3cccc(NC(=O)Nc4cc(C(F)(F)F)cc(C(F)(F)F)c4)c3)ccnc12", "0 (no)"),
    ("Nc1cccc2c(-c3cccc(NC(=O)c4ccc(Cl)c(C(F)(F)F)c4)c3)ccnc12", "1 (yes)"),
    ("Nc1cccc2c(-c3cccc(NC(=O)c4nccs4)c3)ccnc12", "0 (no)"),
    ("CC(=O)Nc1cccc2c(-c3cccc(NC(=O)Nc4cc(C(F)(F)F)cc(C(F)(F)F)c4)c3)ccnc12", "0 (no)"),
    ("COc1ccc(C(=O)Nc2cccc(-c3ccnc4c(NC(C)=O)cccc34)c2)cc1OC", "1 (yes)"),
    ("Nc1cccc2c(-c3cccc(NC(=O)c4ccc5c(c4)OCCO5)c3)ccnc12", "1 (yes)"),
    ("CC(=O)Nc1cccc2c(-c3cccc(NC(=O)c4ccc(Cl)c(C(F)(F)F)c4)c3)ccnc12", "1 (yes)"),
]

// switching to the query compound
Enquiry: Hello, is IC50 of the following compound strictly smaller than 2000 nM? `CC(=O)Nc1cccc2c(-c3cccc(NC(=O)c4ccc5c(c4)OCCO5)c3)ccnc12`
Return: 1 (yes)

---

# System: M14
# ASSAY_NAME: Anticancer activity against human M14 cells after 48 hrs by sulforhodamine B assay
# Type: functional, cell-based
# TEST_CONDITIONS: M14, 48 h
PROPERTY_LABEL: pIC50
// pIC50: -log10(molar conc.)

# INPUT_SMILES, RESULT_VALUE
records = [
    ("CC(=O)Nc1cccc2c(-c3cccc(NC(=O)c4ccc5c(c4)OCCO5)c3)ccnc12", 7.01),
    ("CC(=O)Nc1cccc2c(-c3cccc(NC(=O)Nc4cc(C(F)(F)F)cc(C(F)(F)F)c4)c3)ccnc12", 4.85),
    ("Nc1cccc2c(-c3cccc(NC(=O)c4ccc5c(c4)OCCO5)c3)ccnc12", 7.08),
]

Enquiry: Enter reported pIC50 observed with M14 for `CC(=O)Nc1cccc2c(-c3cccc(NC(=O)c4ccc(Cl)c(C(F)(F)F)c4)c3)ccnc12`
Return: 5.48

Enquiry: Enter reported pIC50 observed with M14 for `Nc1cccc2c(-c3cccc(NC(=O)Nc4cc(C(F)(F)F)cc(C(F)(F)F)c4)c3)ccnc12`
Return: 5.68

Enquiry: Enter reported pIC50 observed with M14 for `COc1ccc(C(=O)Nc2cccc(-c3ccnc4c(NC(C)=O)cccc34)c2)cc1OC`
Return: 6.16

Enquiry: Enter reported pIC50 observed with M14 for `Nc1cccc2c(-c3cccc(NC(=O)c4ccc(Cl)c(C(F)(F)F)c4)c3)ccnc12`
Return: 5.48

Enquiry: Enter reported pIC50 observed with M14 for `Nc1cccc2c(-c3cccc(NC(=O)c4nccs4)c3)ccnc12`
Return: 5.16
